Biological target: full-length NS3/NS4A-2 (HCV NS3 protease) (Hepatitis C virus genotype 1a, UniProt P27958)
Construct: Recombinant E. coli or Baculovirus full-length NS3 was diluted to 3.33 μM with assay buffer; made in house; host or cells: E. coli or baculovirus (BV) expression system
Sequence (P27958 1027-1657): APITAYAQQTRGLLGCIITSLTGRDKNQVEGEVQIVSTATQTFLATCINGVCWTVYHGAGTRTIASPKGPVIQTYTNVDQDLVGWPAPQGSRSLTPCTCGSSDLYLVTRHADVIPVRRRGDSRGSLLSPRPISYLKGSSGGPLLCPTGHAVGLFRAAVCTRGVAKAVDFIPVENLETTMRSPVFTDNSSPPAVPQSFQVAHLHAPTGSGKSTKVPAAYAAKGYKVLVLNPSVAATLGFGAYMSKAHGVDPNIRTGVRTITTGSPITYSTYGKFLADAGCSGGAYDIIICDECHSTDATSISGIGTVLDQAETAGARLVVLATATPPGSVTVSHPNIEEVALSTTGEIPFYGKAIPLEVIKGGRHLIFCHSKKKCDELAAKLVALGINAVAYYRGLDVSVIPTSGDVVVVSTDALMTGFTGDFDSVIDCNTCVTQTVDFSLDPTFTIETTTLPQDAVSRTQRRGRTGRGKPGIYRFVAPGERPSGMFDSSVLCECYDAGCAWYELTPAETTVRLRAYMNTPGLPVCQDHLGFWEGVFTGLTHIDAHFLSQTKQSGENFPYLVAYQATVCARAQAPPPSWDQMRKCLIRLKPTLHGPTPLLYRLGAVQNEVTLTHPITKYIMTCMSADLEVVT
Experiment: NS3-NS4 protease assay / NS3 inhibition assay (RETS1 substrate, fluorescence kinetic read)
Format: biochemical
measured_endpoint: IC50

CC(C)(C)OC(=O)N[C@H]1COCCC/C=C\[C@@H]2C[C@@]2(C(=O)NS(=O)(=O)C2CC2)NC(=O)[C@@H]2C[C@@H](OC(=O)N3Cc4cccc(F)c4C3)CN2C1=O [Compound 1020] : < 100 nM

Go through the list and state IC50 for each entry.
1. N[C@H]1CCCCC/C=C\[C@@H]2C[C@@]2(C(=O)NS(=O)(=O)N2CCC(F)(F)C2)NC(=O)[C@@H]2C[C@@H](OC(=O)N3Cc4cccc(Cl)c4C3)CN2C1=O [Compound 222]
2. CC(C)(C)OC(=O)N[C@H]1CCCOCCC[C@@H]2C[C@@]2(C(=O)NS(=O)(=O)C2CC2)NC(=O)[C@@H]2C[C@@H](OC(=O)N3Cc4cccc(F)c4C3)CN2C1=O [Compound 1023]

-- reply
1. < 100 nM
2. < 100 nM
